Test system: MEL-JUSO (Melanoma)
Assay: combination Emax (second highest fraction inhibited in the dose matrix, 72 h); higher = more inhibition; extreme values may be limits of the assay

compound	combination Emax
Cc1c2c(nn1C)CSCc1cc(n(C)n1)CSc1cc(c3ccccc3c1)OCCCc1c(C(=O)O)n(C)c3c-2c(Cl)ccc13 [AZD5991] + C[C@@H](Nc1cc(F)cc(F)c1)c1cc(C(=O)N(C)C)cc2c(=O)cc(N3CCOCC3)oc12 [AZD8186] (first compound max 1 µM, 7x7, partner max 3 µM)	0.527
CN(CCO)CC[C@H](CSc1ccccc1)Nc1ccc(S(=O)(=O)NC(=O)c2ccc(N3CCC([C@@H](O)c4ccccc4-c4ccc(Cl)cc4)CC3)cc2)cc1S(=O)(=O)C(F)(F)F [AZD4320] + C=CCn1c(=O)c2cnc(Nc3ccc(N4CCN(C)CC4)cc3)nc2n1-c1cccc(C(C)(C)O)n1 [AZD1775] (first compound max 1 µM, partner max 1 µM)	0.73
CC1(C)CCC(CN2CCN(c3ccc(C(=O)NS(=O)(=O)c4ccc(NCC5CCOCC5)c([N+](=O)[O-])c4)c(Oc4cnc5[nH]ccc5c4)c3)CC2)=C(c2ccc(Cl)cc2)C1 [Venetoclax] + COc1cc(Nc2ncc3c(n2)-c2ccc(Cl)cc2C(c2c(F)cccc2OC)=NC3)ccc1C(=O)O [Alisertib] (first compound max 1 µM, 7x7, partner max 10 µM)	0.301
COc1cc2c(cc1OCCCCCOc1cc3c(cc1OC)C(=O)N1C=C(C)C[C@H]1C=N3)N=C[C@@H]1CC(C)=CN1C2=O [SG3199] + O=C(c1cc(Cc2n[nH]c(=O)c3ccccc23)ccc1F)N1CCN(C(=O)C2CC2)CC1 [Olaparib] (first compound max 0.001 µM, 7x7, partner max 10 µM)	0.0923
CC1(C)CCC(CN2CCN(c3ccc(C(=O)NS(=O)(=O)c4ccc(NCC5CCOCC5)c([N+](=O)[O-])c4)c(Oc4cnc5[nH]ccc5c4)c3)CC2)=C(c2ccc(Cl)cc2)C1 [Venetoclax] + CCN(CCO)CCCOc1ccc2c(Nc3cc(CC(=O)Nc4cccc(F)c4)[nH]n3)ncnc2c1 [AZD2811] (first compound max 1 µM, 7x7, partner max 1 µM)	0.287
CCN(CCO)CCCOc1ccc2c(Nc3cc(CC(=O)Nc4cccc(F)c4)[nH]n3)ncnc2c1 [AZD2811] + O=C(c1cc(Cc2n[nH]c(=O)c3ccccc23)ccc1F)N1CCN(C(=O)C2CC2)CC1 [Olaparib] (first compound max 1 µM, 7x7, partner max 10 µM)	0.243
